Target or test system: IL-17A/A (Homo sapiens)
Sequence (Q16552 24-155): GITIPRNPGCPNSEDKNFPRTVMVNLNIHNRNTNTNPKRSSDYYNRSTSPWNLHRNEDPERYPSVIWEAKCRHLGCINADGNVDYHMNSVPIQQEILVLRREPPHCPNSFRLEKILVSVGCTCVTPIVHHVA
Assay protocol: HEK-Blue IL-17A/A inhibition assay (SEAP reporter)
Experimental conditions: HEK-Blue cells (HEK 293 expressing IL-17RA, IL-17RC, Act1); IL-17A/A stimulation; 20 hours; SEAP read at A630; 4-parameter fit
Description: The HEK-Blue #NC108637 […]. Cells were grown and prepared for assays according to the manufacturer's instructions. […] Media from the cells is then added to a development reagent (Quanti-Blue Substrate, Fisher #NC971 1613), and read at A630. […]
pIC50: −log10 of the molar value.
Reported property: pIC50

A selection of reference data follows.
Compound	Reported property	Measured result
CC(C)n1nccc1C(=O)N[C@H](C(=O)Nc1ccc([C@H](C)C(=O)N2CCOc3ccccc3C2C(F)(F)F)cc1F)C(C1CC1)C1CC1 (some centres unmarked) [Compound 56]	pIC50	6.00 to 7.00
COc1cc(NC(=O)[C@@H](NC(=O)c2ccnn2C(C)C)C(C2CC2)C2CC2)c(F)cc1C(C)C(=O)NC(CO)C(F)(F)F (single isomer, unassigned) [Compound 181]	pIC50	6.00 to 7.00

I would be grateful if you could provide pIC50 for each of the following entries.
1. CC(C)C(C(=O)NCC(F)(F)F)c1ccc(NC(=O)[C@@H](NC(=O)c2ccnn2C(C)C)C(C2CC2)C2CC2)c(F)c1 (single isomer, unassigned) [Compound 128]
2. COCc1cc(NC(=O)[C@@H](NC(=O)c2ccnn2C(C)C)C(C2CC2)C2CC2)c(F)cc1C(C)C(=O)NCC(F)(F)F (single isomer, unassigned) [Compound 125]
3. CC(C(=O)NCC(F)(F)F)c1cc(F)c(NC(=O)[C@@H](NC(=O)c2ccnn2C(C)C)C(C2CC2)C2CC2)cc1NC(=O)OCCN (some centres unmarked) [Compound 256]

["6.00 to 7.00", "< 6.00", "6.00 to 7.00"]

---

Target or test system: IL-17A/A (Homo sapiens)
Assay protocol: HEK-Blue IL-17A/A inhibition assay (SEAP reporter)
Experimental conditions: HEK-Blue cells (HEK 293 expressing IL-17RA, IL-17RC, Act1); IL-17A/A stimulation; 20 hours; SEAP read at A630; 4-parameter fit
pIC50: −log10 of the molar value.
Reported property: pIC50

Some molecules with recorded pIC50:
Molecule	pIC50
CC(C)n1nccc1C(=O)N[C@H](C(=O)Nc1ccc([C@H](C)C(=O)NCC(F)(F)F)cc1F)C1CCC(F)(F)CC1 [Compound 50]	6.00 to 7.00
CC(=O)NC(C(=O)NCC(F)(F)F)c1ccc(NC(=O)[C@@H](NC(=O)c2ccnn2C(C)C)C(C2CC2)C2CC2)c(F)c1 (single isomer, unassigned) [Compound 167]	6.00 to 7.00
CCn1ncc(F)c1C(=O)N[C@H](C(=O)Nc1ccc([C@H](C)C(=O)N(C)CC(F)(F)F)cc1F)C(C1CC1)C1CC1 [Compound 79]	6.00 to 7.00
CC(C)n1nccc1C(=O)N[C@H](C(=O)Nc1ccc([C@H](C)C(=O)NCCF)cc1F)C(C1CC1)C1CC1 [Compound 34]	6.00 to 7.00
CCn1nccc1C(=O)N[C@H](C(=O)Nc1cc(C(F)(F)F)c(C(C)C(=O)NC(CO)C(F)(F)F)cc1F)C(C1CC1)C1CC1 (single isomer, unassigned) [Compound 240]	> 7.00

Respectfully, I request pIC50 for each entry included below.
1. COc1cc(NC(=O)[C@@H](NC(=O)c2ccnn2C(C)C)C(C2CC2)C2CC2)c(F)cc1C(C)C(=O)N1CC(O)CC1C(F)(F)F (single isomer, unassigned) [Compound 212]
2. CC(C)n1nccc1C(=O)N[C@H](C(=O)Nc1ccc([C@H](C)C(=O)N2CCC(N)C2)cc1F)C(C1CC1)C1CC1 (stereo partly drawn) [Compound 132]
3. CC(C(=O)NCC(F)(F)F)c1cc(F)c(NC(=O)[C@@H](NC(=O)c2ccnn2C(C)C)C(C2CC2)C2CC2)cc1N1CCCC1=O (stereo partly drawn) [Compound 187]
4. CC(C(=O)NCC(F)(F)F)c1cc(F)c(NC(=O)[C@@H](NC(=O)c2ccnn2C(C)C)C(C2CC2)C2CC2)cc1C(F)(F)F (single isomer, unassigned) [Compound 121]
5. Cc1cc(NC(=O)[C@@H](NC(=O)c2ccnn2C(C)C)C(C2CC2)C2CC2)c(F)cc1C(C)C(=O)NC(C1CCOC1)C(F)(F)F (stereo partly drawn) [Compound 209]

1: > 7.00; 2: < 6.00; 3: 6.00 to 7.00; 4: < 6.00; 5: > 7.00

I'm hoping you can list pIC50 for every molecule here, please.
1. CCOc1cc(NC(=O)[C@@H](NC(=O)c2ccnn2C(C)C)C(C2CC2)C2CC2)c(F)cc1C(C)C(=O)NCC(F)(F)F (stereo partly drawn) [Compound 194]
2. CNCCN(CC(F)(F)F)C(=O)[C@@H](C)c1ccc(NC(=O)[C@@H](NC(=O)c2ccnn2C(C)C)C(C2CC2)C2CC2)c(F)c1 [Compound 22]
3. CC(C(=O)NCC(F)(F)F)c1cc(F)c(NC(=O)[C@@H](NC(=O)c2ccnn2C(C)C)C(C2CC2)C2CC2)cc1N(C)C (stereo partly drawn) [Compound 214]

6.00 to 7.00
6.00 to 7.00
< 6.00

Record pIC50 per entry; entries follow.
1. CC(C(=O)NCC(F)(F)F)c1cc(F)c(NC(=O)[C@@H](NC(=O)c2ccnn2C(C)C)C(C2CC2)C2CC2)cc1Br (mixture of isomers) [Compound 113]
2. CC(C)n1nccc1C(=O)N[C@H](C(=O)Nc1ccc(C(N)C(=O)NCC(F)(F)F)cc1F)C(C1CC1)C1CC1 (single isomer, unassigned) [Compound 191]
3. CCn1nccc1C(=O)N[C@H](C(=O)Nc1cc(C(F)(F)F)c(C(C)C(=O)N2CC(F)(F)C(F)(F)C2)cc1F)C(C1CC1)C1CC1 (stereo partly drawn) [Compound 242]
4. CC(C)n1nccc1C(=O)N[C@H](C(=O)Nc1ccc([C@H](C)C(=O)N2CCCCC2C(F)(F)F)cc1F)C(C1CC1)C1CC1 (single isomer, unassigned) [Compound 20]
5. CCCNC(=O)Cc1ccc(NC(=O)[C@@H](NC(=O)c2ccnn2CC)C2CCCCCC2)c(F)c1 [Compound 114]
6. CNc1cc(NC(=O)[C@@H](NC(=O)c2ccnn2C(C)C)C(C2CC2)C2CC2)c(F)cc1C(C)C(=O)NCC(F)(F)F (stereo partly drawn) [Compound 196]

1. 6.00 to 7.00
2. 6.00 to 7.00
3. 6.00 to 7.00
4. 6.00 to 7.00
5. < 6.00
6. < 6.00
